// MIC lookup, one value per entry
# Test system: C. ramosum
# assay-text: MIC, in vitro antibacterial activity (standard strains)
# Assay type: cell-based
# run-parameters: Thomasclavelia ramosa; 10^6 cells/ml; Gram +; read-out: MIC
Could you give me the number in µg/mL? Just the number is fine.

A selection of reference data follows.
INSERT INTO measurements (molecule, endpoint_result) VALUES
  ('C[C@H]1CN(c2cc3c(cc2F)c(=O)c(C(=O)O)cn3C2CC2)C[C@H]1N (relative stereo) [Example 33]', 6.25),
  ('C[C@H]1CN(c2c(F)cc3c(=O)c(C(=O)O)cn(C4CC4)c3c2F)C[C@H]1N.Cl (relative stereo) [Example 20]', 1.56),
  ('C[C@@H]1CN(c2c(F)cc3c(=O)c(C(=O)O)cn(C4CC4)c3c2F)C[C@H]1N (relative stereo) [Example 18]', 0.78),
  ('CC1COc2c(N3C[C@@H](N)[C@@H](C)C3)c(F)cc3c(=O)c(C(=O)O)cn1c23.Cl (relative stereo) [Example 29]', 12.5),
  ('C[C@H]1CN(c2c(F)cc3c(=O)c(C(=O)O)cn(C4CC4)c3c2Br)C[C@H]1N (relative stereo) [Example 21]', 0.78),
  ('CCNCC1CN(c2c(F)cc3c(=O)c(C(=O)O)cn(C4CC4)c3c2F)CC1C (stereo not drawn) [Example 15]', 0.78),
  ('CC1CN(c2c(F)cc3c(=O)c(C(=O)O)cn(C4CC4)c3c2F)CC1N.Cl (stereo not drawn) [Example 11]', 1.56),
  ('CC1CN(c2c(F)cc3c(=O)c(C(=O)O)cn(C4CC4)c3c2Cl)CC1CN (stereo not drawn) [Example 1]', 0.2);

Could you share which MIC value was measured for CCNCC1CN(c2c(F)cc3c(=O)c(C(=O)O)cn(C4CC4)c3c2Cl)CC1C (stereo not drawn) [Example 14] ?
0.2

Could you share which MIC value was measured for C[C@H]1CN(c2c(F)cc3c(=O)c(C(=O)O)cn(C4CC4)c3c2Cl)C[C@H]1N (relative stereo) [Example 16] ?
0.39

Could you share which MIC value was measured for C[C@H]1CN(c2c(F)cc3c(=O)c(C(=O)O)cn(CCF)c3c2Cl)C[C@H]1N (relative stereo) [Example 27] ?
25

Could you share which MIC value was measured for CCn1cc(C(=O)O)c(=O)c2cc(F)c(N3C[C@@H](N)[C@@H](C)C3)c(Cl)c21 (relative stereo) [Example 23] ?
6.25

Could you share which MIC value was measured for C[C@@H]1CN(c2c(F)cc3c(=O)c(C(=O)O)cn(C4CC4)c3c2Cl)C[C@H]1N (relative stereo) [Example 17] ?
0.39

Could you share which MIC value was measured for CCn1cc(C(=O)O)c(=O)c2cc(F)c(N3CCNCC3)cc21 [NFLX, norfloxacin, reference compound] ?
50

Could you share which MIC value was measured for C[C@@H]1CN(c2c(F)cc3c(=O)c(C(=O)O)cn(C4CC4)c3c2Br)C[C@H]1N (relative stereo) [Example 32] ?
0.78

These measurements were taken from patent US4753953A.
